test system: IGROV1 ovarian; assay: NCI tumour cell line growth inhibition, 48 h
Entries and their measured TGI follow.

Problem: For CCC1=C(C)C2=NC1=CC1=NC(=C(CC)/C1=C/O)C=C1N=C3C(=C1C)C(=O)C(C(=O)OC)C3=C1NC(=C2)C(C)C1CCC(=O)OC (centres undefined) , what is its reported TGI?
Solution: > 100 µM

Problem: What measured TGI goes with CCOc1ccc(N=NC2C(=O)N(C(=O)CC(=O)Nc3ccc(Cl)cc3)N=C2C)cc1 (centres undefined) ?
Solution: > 100 µM

Problem: Which measured TGI value corresponds to C[C@H](NC(=O)OC1C2C=CC(O)C1CC2)c1ccccc1 (some centres undefined) ?
Solution: > 100 µM

Please examine the following record next.
Problem: // TGI lookup, key: CC(C)(C)[Si](C)(C)OCC1OC(n2ccc(=O)[nH]c2=O)C(O[Si](C)(C)C(C)(C)C)/C1=N/O (centres undefined)
Solution: 15.6 µM
